System: CAKI-1
Experiment: NCI tumour cell line growth inhibition, 48 h
Active and inactive are the calls of the source. Rule as the data show it: active = GI50 up to about 1.1 µM and inactive = higher.

# COMPOUND, GI50
measured = [
    ("CC1CN=C(N(C)C(=O)Nc2ccc(Cl)cc2)S1 (configuration not stated)", "3.64 µM (inactive)"),
    ("Cc1c(C)c2c(c(N)c1C#N)C(=O)N(NC(=S)Nc1ccccc1)C2=O", "18.2 µM (inactive)"),
    ("CO/C(=N\\N=C\\c1cccc(Cl)c1)c1ccncc1", "> 10 µM (inactive)"),
    ("CC(=O)OCC1=C(CCC#N)N2C(=O)C(NC(=O)Cc3cccs3)C2[S+]([O-])C1 (configuration not stated)", "> 100 µM (inactive)"),
    ("COc1ccc(N[S+]([O-])C2CCCCC2)cc1 (configuration not stated)", "> 100 µM (inactive)"),
    ("OC[C@@H]1CC#C/C=C\\C#CC[C@@H]1CO", "> 100 µM (inactive)"),
    ("Cc1ccc(CCCCCOc2ccc(C3=NCCO3)cc2)s1", "> 100 µM (inactive)"),
    ("O=C1NN=C(c2c[nH]c3ccccc23)CC1NCc1ccccc1 (configuration not stated)", "> 100 µM (inactive)"),
    ("O=C(CSSCC(=O)Nc1ccc(Br)cc1)Nc1ccc(Br)cc1", "24.2 µM (inactive)"),
    ("C[C@@H]1[C@@H](C)C(c2ccccc2)O[Si]1(C(C)(C)C)C(C)(C)C (some centres not stated)", "17.1 µM (inactive)"),
    ("CN(C)CC1CCCC/C1=N/OC(=O)c1ccc(Cl)cc1 (configuration not stated)", "> 100 µM (inactive)"),
    ("COP(=O)(Cc1ccccc1)Cc1ccccc1", "> 100 µM (inactive)"),
]
